What follows is literature data on pIC50 for cGMP-specific 3',5'-cyclic phosphodiesterase (Homo sapiens).
pIC50: −log10 of the molar value.
Rule: T for pIC50 not less than 6, F for anything less.

Past entries and their recorded results:
compound: O=c1c2cc(F)ccc2oc2c(Cc3ccc4c(c3)OCO4)[nH]c(-c3nccs3)c12
system_tested: cGMP-specific 3',5'-cyclic phosphodiesterase (Homo sapiens)
label_value: T
--
compound: Oc1cc(O)cc(-c2cc3ccc(O)cc3o2)c1
system_tested: cGMP-specific 3',5'-cyclic phosphodiesterase (Homo sapiens)
label_value: F
--
compound: O=c1c2ccccc2oc2c(Cc3ccc(C(F)(F)F)cc3)[nH]c(-c3nccs3)c12
system_tested: cGMP-specific 3',5'-cyclic phosphodiesterase (Homo sapiens)
label_value: T
--
compound: CCCCn1c2c(c3c(OC)cc(OC)cc31)CCn1c-2nc2ccccc2c1=O
system_tested: cGMP-specific 3',5'-cyclic phosphodiesterase (Homo sapiens)
label_value: F
--
compound: CCCOc1ccccc1-c1nc(O)c2scc(C)c2n1
system_tested: cGMP-specific 3',5'-cyclic phosphodiesterase (Homo sapiens)
label_value: T
--
compound: CCCC/C=C/c1cc(C)ccc1/C=C/CC(=O)O
system_tested: cGMP-specific 3',5'-cyclic phosphodiesterase (Homo sapiens)
label_value: F

Item CC(C)Cn1c(=O)n(C)c(=O)c2[nH]c(CC3CC4CCC3C4)nc21 (stereo not given) with pIC50 of 6 or above?
T

Item `C[C@@H]1CN(Cc2ccc3nccnc3c2)C[C@H]1c1nc2c(cnn2C2CCCC2)c(=O)[nH]1` with pIC50 of 6 or above?
T
